B1: Azoarcus group I ribozyme (parent)
chain: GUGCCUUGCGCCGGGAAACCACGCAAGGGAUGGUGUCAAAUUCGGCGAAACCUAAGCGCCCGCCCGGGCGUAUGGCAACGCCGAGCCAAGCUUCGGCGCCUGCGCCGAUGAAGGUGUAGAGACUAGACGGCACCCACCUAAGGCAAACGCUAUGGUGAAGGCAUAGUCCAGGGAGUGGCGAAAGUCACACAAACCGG

variants of: B1; assay: reverse-splicing fitness (ratio to wild type); higher = more active; in vitro selection; Mg2+ level not given
We use 0.02 as the dividing line for reverse-splicing fitness: on or above the line is yes, below is no.

>  <MUTANT>
C82U A145U C150U C169U U176G

>  <ASSIGNED CLASS>
no

$$$$
>  <MUTANT>
A111C A120C A145C C150U U176A

>  <ASSIGNED CLASS>
yes

$$$$
>  <MUTANT>
A111G A120U C169G U176C

>  <ASSIGNED CLASS>
yes

$$$$
>  <MUTANT>
A111G A120C C150U C169U U176G

>  <ASSIGNED CLASS>
no

$$$$
>  <MUTANT>
C82U A120U U176G

>  <ASSIGNED CLASS>
no

$$$$
>  <MUTANT>
C82U A111U C150A C169G U176A

>  <ASSIGNED CLASS>
no

$$$$
>  <MUTANT>
C82A A120U A145U C150A C169A U176A

>  <ASSIGNED CLASS>
no

$$$$
>  <MUTANT>
C82A C150A C169U U176A

>  <ASSIGNED CLASS>
no

$$$$
>  <MUTANT>
C82A A120G C150G C169A U176C

>  <ASSIGNED CLASS>
no

$$$$
>  <MUTANT>
C82A A120G A145C C150A C169A U176C

>  <ASSIGNED CLASS>
no

$$$$
>  <MUTANT>
A111G A120C A145G C150U C169U

>  <ASSIGNED CLASS>
yes

$$$$
>  <MUTANT>
C82U A111U A120U A145U C150G C169G U176G

>  <ASSIGNED CLASS>
no

$$$$
>  <MUTANT>
C82G A120C A145U C150A C169U U176C

>  <ASSIGNED CLASS>
no

$$$$
>  <MUTANT>
C82G A120G A145G C150G U176A

>  <ASSIGNED CLASS>
no

$$$$
>  <MUTANT>
C82U A111C A120G A145G C150U C169G

>  <ASSIGNED CLASS>
no

$$$$
>  <MUTANT>
C82U A111G C150G

>  <ASSIGNED CLASS>
yes

$$$$
>  <MUTANT>
C82U A111C A145U C169U U176G

>  <ASSIGNED CLASS>
no

$$$$
>  <MUTANT>
A111U A120C A145C C150G U176C

>  <ASSIGNED CLASS>
yes

$$$$
>  <MUTANT>
A111C A145C C169U

>  <ASSIGNED CLASS>
yes

$$$$
>  <MUTANT>
C82A A111C A120U A145C C150A C169G U176C

>  <ASSIGNED CLASS>
no

$$$$
>  <MUTANT>
A111G A145C C169U U176G

>  <ASSIGNED CLASS>
no

$$$$
